The reported measurements were obtained from patent US8853246B2.

endpointLabel: melting point

Prompt line: Which value of melting point has been reported for Cc1nc(-c2cncc(F)c2)sc1NC(=O)C(C)(C)CS(C)(=O)=O in the records?
Response line: 157 to 167 °C

Prompt line: What do you have for COC(=O)Nc1sc(-c2cccnc2)nc1C ?
Response line: 159 to 160 °C

Prompt line: What do you have for Cc1nc(-c2cccnc2)sc1NC(=O)OCc1ccccc1 ?
Response line: 137 to 139 °C

Prompt line: What do you have for CSCC(C)(C)C(=O)N(C)c1cnc(-c2ccc(Cl)nc2)s1 ?
Response line: 104 to 108 °C

Prompt line: What do you have for CCOC(=O)c1cncc(-c2nc(C)c(NC(=O)OC(C)(C)C)s2)c1 ?
Response line: 124 to 128 °C
